test: Concentration required to reduce plating efficiency to 10 percent of controls, under aerobic conditions in mouse SCCVII tumor cells.; assay type: functional, SCC-7
Criterion: C10 meeting or surpassing 400 µM. Met: yes (1). Not met: no (0).

{"columns": ["structure_notation", "group_label"],
 "data": [
  ["Nc1n[n+]([O-])c2c(F)cccc2[n+]1[O-]", "no (0)"],
  ["CCN(CC)c1ccc2c(c1)[n+]([O-])nc(N)[n+]2[O-]", "yes (1)"],
  ["COc1ccc2c(c1)[n+]([O-])nc(N)[n+]2[O-]", "yes (1)"],
  ["Nc1n[n+]([O-])c2ccc(F)cc2[n+]1[O-]", "no (0)"],
  ["CCN(CC)c1cccc2c1[n+]([O-])c(N)n[n+]2[O-]", "no (0)"],
  ["Cc1ccc2c(c1)[n+]([O-])c(N)n[n+]2[O-]", "yes (1)"],
  ["Nc1n[n+]([O-])c2cc(F)ccc2[n+]1[O-]", "no (0)"],
  ["Cc1ccc2c(c1)[n+]([O-])nc(N)[n+]2[O-]", "yes (1)"],
  ["CN(C)c1ccc2c(c1)[n+]([O-])c(N)n[n+]2[O-]", "yes (1)"],
  ["Nc1n[n+]([O-])c2c(Cl)cccc2[n+]1[O-]", "no (0)"],
  ["Nc1n[n+]([O-])c2cc([N+](=O)[O-])ccc2[n+]1[O-]", "no (0)"],
  ["CS(=O)(=O)c1ccc2c(c1)[n+]([O-])nc(N)[n+]2[O-]", "no (0)"]
]}

----------
tested on: SCC-7; test: Inhibitory concentration against murine SCCVII cell line under aerobic condition; assay type: functional, cell-based; conditions: Mus musculus
Reported IC50 is given for each of the following molecules.
recorded_metric: IC50 (µM)

{"columns": ["molecule", "system_name", "measured_result"],
 "data": [
  ["Nc1n[n+]([O-])c2cc(Cl)ccc2[n+]1[O-]", "SCC-7", 12.2],
  ["Nc1n[n+]([O-])c2cc(F)ccc2[n+]1[O-]", "SCC-7", 17.6],
  ["Nc1n[n+]([O-])c2c(Cl)cccc2[n+]1[O-]", "SCC-7", 8.2],
  ["Nc1n[n+]([O-])c2cc([N+](=O)[O-])ccc2[n+]1[O-]", "SCC-7", 2.8],
  ["CN(C)c1cccc2c1[n+]([O-])c(N)n[n+]2[O-]", "SCC-7", 2.1],
  ["Nc1n[n+]([O-])c2ccccc2[n+]1[O-] [TIRAPAZAMINE]", "SCC-7", 71.7],
  ["Nc1n[n+]([O-])c2cc(C(F)(F)F)ccc2[n+]1[O-]", "SCC-7", 23.9],
  ["COc1cccc2c1[n+]([O-])nc(N)[n+]2[O-]", "SCC-7", 288],
  ["Cc1ccc2c(c1)[n+]([O-])c(N)n[n+]2[O-]", "SCC-7", 217],
  ["Nc1n[n+]([O-])c2ccc(Cl)cc2[n+]1[O-]", "SCC-7", 21.1],
  ["CS(=O)(=O)c1cccc2c1[n+]([O-])nc(N)[n+]2[O-]", "SCC-7", 15.5],
  ["Nc1n[n+]([O-])c2c(F)cccc2[n+]1[O-]", "SCC-7", 23.7]
]}

----------
Measured IC50, listed per entry for reference.
system: HT-29; experiment: Inhibitory concentration against human adenocarcinoma HT-29 cell line under aerobic condition; assay type: functional, cell-based

{"columns": ["structure_notation", "IC50 / µM"],
 "data": [
  ["Nc1n[n+]([O-])c2c(F)cccc2[n+]1[O-]", 8.7],
  ["CN(C)c1cccc2c1[n+]([O-])c(N)n[n+]2[O-]", 4.2],
  ["Nc1n[n+]([O-])c2cc(F)ccc2[n+]1[O-]", 47.8],
  ["COc1cccc2c1[n+]([O-])nc(N)[n+]2[O-]", 624],
  ["Nc1n[n+]([O-])c2cc([N+](=O)[O-])ccc2[n+]1[O-]", 14.1],
  ["Cc1ccc2c(c1)[n+]([O-])c(N)n[n+]2[O-]", 469]
]}

----------
test: Intraexperimental difference between the hypoxic and aerobic cytotoxicity; assay type: functional
recorded_metric: HCR

{"columns": ["structure_notation", "measured_result"],
 "data": [
  ["Nc1n[n+]([O-])c2ccc(F)cc2[n+]1[O-]", 11.2],
  ["Nc1n[n+]([O-])c2ccc(C(F)(F)F)cc2[n+]1[O-]", 13.3],
  ["CS(=O)(=O)c1ccc2c(c1)[n+]([O-])c(N)n[n+]2[O-]", "<10.5"],
  ["CN(C)c1ccc2c(c1)[n+]([O-])c(N)n[n+]2[O-]", "<1"],
  ["CCN(CC)c1cccc2c1[n+]([O-])c(N)n[n+]2[O-]", 0.87],
  ["CN(C)c1cccc2c1[n+]([O-])nc(N)[n+]2[O-]", 17.6],
  ["Cc1cccc2c1[n+]([O-])c(N)n[n+]2[O-]", "<10"],
  ["Nc1n[n+]([O-])c2cccc(Cl)c2[n+]1[O-]", 1.4],
  ["Cc1ccc2c(c1)[n+]([O-])nc(N)[n+]2[O-]", 125],
  ["CCCCS(=O)(=O)c1cccc2c1[n+]([O-])nc(N)[n+]2[O-]", 21.1],
  ["CCCCS(=O)(=O)c1ccc2c(c1)[n+]([O-])nc(N)[n+]2[O-]", ">11.5"],
  ["CS(=O)(=O)c1ccc2c(c1)[n+]([O-])nc(N)[n+]2[O-]", 7.9],
  ["COc1cccc2c1[n+]([O-])c(N)n[n+]2[O-]", 0.83],
  ["Nc1n[n+]([O-])c2cccc(F)c2[n+]1[O-]", "<7.5"],
  ["CCCCS(=O)(=O)c1ccc2c(c1)[n+]([O-])c(N)n[n+]2[O-]", "<6.3"],
  ["CCN(CC)c1cccc2c1[n+]([O-])nc(N)[n+]2[O-]", 16.7],
  ["CN(C)c1ccc2c(c1)[n+]([O-])nc(N)[n+]2[O-]", 13.3],
  ["Cc1cccc2c1[n+]([O-])nc(N)[n+]2[O-]", 102.9],
  ["COc1ccc2c(c1)[n+]([O-])nc(N)[n+]2[O-]", 100],
  ["Nc1n[n+]([O-])c2c(C(F)(F)F)cccc2[n+]1[O-]", 112.5]
]}

----------
C10 overview
experiment: Concentration required to reduce plating efficiency to 10 percent of controls, under aerobic conditions in mouse SCCVII tumor cells.; type: functional, SCC-7

{"columns": ["structure_notation", "inequality_symbol", "C10 / µM"],
 "data": [
  ["CN(C)c1ccc2c(c1)[n+]([O-])nc(N)[n+]2[O-]", "=", 3159],
  ["CN(C)c1cccc2c1[n+]([O-])c(N)n[n+]2[O-]", "=", 30.5],
  ["Nc1n[n+]([O-])c2cc(C(F)(F)F)ccc2[n+]1[O-]", "=", 305],
  ["CCN(CC)c1ccc2c(c1)[n+]([O-])c(N)n[n+]2[O-]", ">", 1269],
  ["Nc1n[n+]([O-])c2ccccc2[n+]1[O-]", "=", 2644],
  ["CCCCS(=O)(=O)c1ccc2c(c1)[n+]([O-])nc(N)[n+]2[O-]", ">", 89.6],
  ["Nc1n[n+]([O-])c2ccc(Cl)cc2[n+]1[O-]", "=", 140],
  ["Cc1cccc2c1[n+]([O-])nc(N)[n+]2[O-]", "=", 2538],
  ["CCN(CC)c1cccc2c1[n+]([O-])nc(N)[n+]2[O-]", "=", 1904],
  ["CS(=O)(=O)c1cccc2c1[n+]([O-])nc(N)[n+]2[O-]", "=", 338],
  ["Nc1n[n+]([O-])c2cccc(Cl)c2[n+]1[O-]", "=", 10.2]
]}

----------
Reported values of C10 for individual entries
assay: Concentration required to reduce plating efficiency to 10 percent of controls, under aerobic conditions in mouse SCCVII tumor cells.; assay type: functional, SCC-7

{"columns": ["structure_notation", "inequality_symbol", "C10 (µM)"],
 "data": [
  ["CS(=O)(=O)c1ccc2c(c1)[n+]([O-])c(N)n[n+]2[O-]", "<", 274],
  ["Nc1n[n+]([O-])c2cccc(F)c2[n+]1[O-]", "<", 76.1],
  ["Cc1cccc2c1[n+]([O-])c(N)n[n+]2[O-]", "<", 381],
  ["Nc1n[n+]([O-])c2c(C(F)(F)F)cccc2[n+]1[O-]", "=", 626],
  ["CN(C)c1cccc2c1[n+]([O-])nc(N)[n+]2[O-]", "=", 2769]
]}
